Where do the numbers come from? From ChEMBL document CHEMBL3352010.

system-under-test: Delta-type opioid receptor (Mus musculus, UniProt P32300)
Sequence (P32300 whole entry): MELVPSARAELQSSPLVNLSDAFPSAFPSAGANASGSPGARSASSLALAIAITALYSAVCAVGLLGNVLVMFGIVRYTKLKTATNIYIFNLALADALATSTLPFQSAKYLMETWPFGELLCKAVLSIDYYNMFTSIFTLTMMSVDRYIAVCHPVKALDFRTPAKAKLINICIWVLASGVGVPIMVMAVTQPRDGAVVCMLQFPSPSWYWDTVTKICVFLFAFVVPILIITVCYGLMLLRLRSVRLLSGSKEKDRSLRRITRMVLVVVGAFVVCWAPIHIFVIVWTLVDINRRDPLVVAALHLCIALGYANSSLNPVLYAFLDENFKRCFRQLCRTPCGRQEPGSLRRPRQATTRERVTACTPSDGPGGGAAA
assay-notes: Displacement of [3H]DPDPE from delta opioid receptor in mouse whole brain without cerebellum
pKi: −log10 of the molar value.
experimental-endpoint: pKi

compound	system-under-test	experimental-endpoint	meas-value
C[C@]1(c2cccc(O)c2)O[C@H]2CO[C@H]3CO[C@@H]1N32 (relative stereo)	Delta-type opioid receptor (Mus musculus, UniProt P32300)	pKi	< 6.00
C[C@]1(c2cccc(O)c2)O[C@H]2CO[C@@H]3N2[C@H]1O[C@]3(C)c1cccc(O)c1 (relative stereo)	Delta-type opioid receptor (Mus musculus, UniProt P32300)	pKi	< 6.00
C[C@@]1(c2cccc(O)c2)O[C@@H]2N3[C@H]1O[C@](C)(c1cccc(O)c1)[C@@H]3O[C@@]2(C)c1cccc(O)c1 (relative stereo)	Delta-type opioid receptor (Mus musculus, UniProt P32300)	pKi	< 6.00

====

system-under-test: Delta-type opioid receptor (Mus musculus, UniProt P32300)
assay-notes: Displacement of [3H]DPDPE from delta opioid receptor in mouse whole brain without cerebellum
pKi: −log10 of the molar value.
experimental-endpoint: pKi

molecule	meas-value
C[C@@]1(c2cccc(O)c2)O[C@H]2CO[C@@H]3N2[C@H]1O[C@@]3(C)c1cccc(O)c1 (relative stereo)	< 6.00
CC1(c2cccc(O)c2)OC2COC3N2C1OC3(C)c1cccc(O)c1 (stereo not given)	6.19
C[C@@]1(c2cccc(O)c2)O[C@H]2CO[C@H]3CO[C@@H]1N32 (relative stereo)	< 6.00
C[C@@]1(c2cccc(O)c2)O[C@H]2CO[C@@H]3N2[C@H]1O[C@]3(C)c1cccc(O)c1 (relative stereo)	< 6.00
COc1cccc([C@@]2(C)O[C@@H]3N4[C@H](CO[C@H]42)O[C@@]3(C)c2cccc(O)c2)c1 (relative stereo)	< 6.00

====

pKi: −log10 of the molar value.
# Kappa-type opioid receptor (Cavia porcellus): pKi values follow
# Sequence (P41144 whole entry): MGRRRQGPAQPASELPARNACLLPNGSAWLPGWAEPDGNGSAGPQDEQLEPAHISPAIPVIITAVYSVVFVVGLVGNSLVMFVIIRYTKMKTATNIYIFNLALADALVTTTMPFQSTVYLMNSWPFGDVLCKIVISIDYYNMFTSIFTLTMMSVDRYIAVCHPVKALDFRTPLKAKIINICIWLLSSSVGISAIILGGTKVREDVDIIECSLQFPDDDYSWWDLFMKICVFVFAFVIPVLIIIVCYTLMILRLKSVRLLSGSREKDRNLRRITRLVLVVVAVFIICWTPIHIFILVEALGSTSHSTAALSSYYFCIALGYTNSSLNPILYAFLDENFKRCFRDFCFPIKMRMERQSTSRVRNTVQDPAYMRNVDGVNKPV

compound	system-under-test	lt-gt-eq	pKi
C[C@]1(c2cccc(O)c2)O[C@H]2CO[C@H]3CO[C@@H]1N32 (relative stereo)	Kappa-type opioid receptor (Cavia porcellus)	<	6.00
C[C@@]1(c2cccc(O)c2)O[C@@H]2N3[C@H](CO[C@H]31)O[C@]2(C)c1cccc(O)c1 (relative stereo)	Kappa-type opioid receptor (Cavia porcellus)	<	6.00
C[C@]1(c2cccc(O)c2)O[C@H]2CO[C@@H]3N2[C@H]1O[C@]3(C)c1cccc(O)c1 (relative stereo)	Kappa-type opioid receptor (Cavia porcellus)	<	6.00
COc1cccc([C@@]2(C)O[C@@H]3N4[C@H](CO[C@H]42)O[C@@]3(C)c2cccc(O)c2)c1 (relative stereo)	Kappa-type opioid receptor (Cavia porcellus)	=	7.28
CC1(c2cccc(O)c2)OC2COC3N2C1OC3(C)c1cccc(O)c1 (centres undefined)	Kappa-type opioid receptor (Cavia porcellus)	<	6.00
C[C@@]1(c2cccc(O)c2)O[C@H]2CO[C@@H]3N2[C@H]1O[C@]3(C)c1cccc(O)c1 (relative stereo)	Kappa-type opioid receptor (Cavia porcellus)	=	8.22
C[C@@]1(c2cccc(O)c2)O[C@H]2CO[C@H]3CO[C@@H]1N32 (relative stereo)	Kappa-type opioid receptor (Cavia porcellus)	<	6.00
C[C@@]1(c2cccc(O)c2)O[C@H]2CO[C@@H]3N2[C@H]1O[C@@]3(C)c1cccc(O)c1 (relative stereo)	Kappa-type opioid receptor (Cavia porcellus)	=	6.10
C[C@@]1(c2cccc(O)c2)O[C@H]2CO[C@@H]3N2[C@H]1O[C@]3(C)c1cccc(O)c1	Kappa-type opioid receptor (Cavia porcellus)	=	8.33
